- Target Or System: UniProt Q96EB6
- Sequence (Q96EB6 1-747): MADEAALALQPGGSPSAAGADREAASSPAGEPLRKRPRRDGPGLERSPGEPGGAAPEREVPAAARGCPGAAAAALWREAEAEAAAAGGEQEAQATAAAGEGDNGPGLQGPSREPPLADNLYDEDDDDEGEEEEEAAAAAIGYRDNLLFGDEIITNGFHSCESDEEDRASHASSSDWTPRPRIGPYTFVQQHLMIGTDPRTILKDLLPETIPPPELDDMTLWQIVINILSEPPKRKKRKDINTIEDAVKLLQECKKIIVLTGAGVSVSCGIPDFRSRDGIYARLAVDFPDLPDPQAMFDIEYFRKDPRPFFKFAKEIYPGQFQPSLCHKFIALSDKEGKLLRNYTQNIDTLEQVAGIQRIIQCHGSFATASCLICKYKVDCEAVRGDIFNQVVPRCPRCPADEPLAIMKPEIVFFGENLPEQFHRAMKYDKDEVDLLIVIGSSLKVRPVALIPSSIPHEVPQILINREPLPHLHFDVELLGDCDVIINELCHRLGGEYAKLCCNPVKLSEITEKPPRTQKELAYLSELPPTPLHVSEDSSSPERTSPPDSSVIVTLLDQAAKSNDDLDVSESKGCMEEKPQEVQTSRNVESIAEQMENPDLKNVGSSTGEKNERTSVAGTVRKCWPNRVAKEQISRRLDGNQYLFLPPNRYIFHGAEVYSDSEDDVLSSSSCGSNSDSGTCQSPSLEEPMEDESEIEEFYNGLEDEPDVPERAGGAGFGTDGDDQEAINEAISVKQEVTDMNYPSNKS
- Procedure Text: Trp mass spectrometry assay of SIRT1 activity
- Assay type: biochemical
- Assay Setup: concentration of test compound giving 150% activation of SIRT1; Trp peptide substrate
Result Type: Trp EC1.5 (μM)

Examples from the recorded data:
Cc1cc(C)nc(NC(=O)c2cnc3ccc(-c4ccccc4C(F)(F)F)nn23)c1 = B (EC1.5 1-25 μM)
O=C(Nc1cccnc1)c1cnc2ccc(-c3cccc(Cl)c3F)nn12 = A (EC1.5<1 μM)
O=C(Nc1cccc(CN2CCOCC2)n1)c1cnc2ccc(-c3ccccc3C(F)F)nn12 = B (EC1.5 1-25 μM)
Cc1cccc(NC(=O)c2cnc3ccc(-c4ccccc4C(F)(F)F)nn23)n1 = A (EC1.5<1 μM)

API: the following record is the query input.
Prompt: Request the reported Trp EC1.5 (μM) associated with O=C(Nc1cnc2ccc(-c3ccccc3C(F)(F)F)nn12)c1cccc(OCC(O)CO)n1 (stereo not drawn)
Completion: A (EC1.5<1 μM)

====

- Target Or System: SIRT1 (Homo sapiens, UniProt Q96EB6)
- Procedure Text: TAMRA based mass spectrometry assay of SIRT1 activity
- Assay type: biochemical
- Assay Setup: TAMRA assay; percent maximum fold activation; read-out: TAMRA % Fold Act
Kindly state Emax for each of the entries shown.

Prompt: Value lookup for Emax; key = O=C(Nc1cncc(OCC(O)CO)n1)c1c(O)nc2ccc(-c3ccccc3C(F)(F)F)nn12 (stereo not drawn)
Completion: ≥ 350%

Prompt: Try `O=C(Nc1cnn2ccc(-c3ccccc3C(F)(F)F)nc12)c1cccnc1` next.
Completion: < 350%

Prompt: Note, next up: `Cc1cnc(NC(=O)c2cnn3ccc(-c4ccccc4C(F)(F)F)nc23)c(C)n1`
Completion: < 350%

Prompt: Can you handle `Cc1ccnc(NC(=O)c2cnc3ccc(-c4ccccc4OC[C@H](O)CO)nn23)c1` next?
Completion: ≥ 350%

Prompt: And for `CC(C)c1csc(C(=O)Nc2cnn3ccc(-c4ccccc4C(F)(F)F)nc23)n1` ?
Completion: ≥ 350%

Prompt: Now the compound `N#Cc1ccccc1-c1ccc2ncc(NC(=O)c3cccc(N4CCC4)n3)n2n1`
Completion: ≥ 350%

Prompt: Same thing, different compound: `O=C(Nc1cnccn1)c1cnc2ccc(-c3ccccc3OC(F)(F)F)nn12`
Completion: ≥ 350%

Prompt: What about `Cc1cc(C)c(NC(=O)c2c(C)nn3ccc(-c4ccccc4Br)nc23)cn1` ?
Completion: ≥ 350%

Prompt: Okay, and `Cc1nc2ccc(-c3ccccc3C(F)(F)F)nn2c1NC(=O)c1cccc(N2CCOCC2)n1` ?
Completion: ≥ 350%
